Molecular target: CDK8/Cyclin C (Homo sapiens (Human), UniProt P49336)
Sequence (P49336 whole entry, one chain of several): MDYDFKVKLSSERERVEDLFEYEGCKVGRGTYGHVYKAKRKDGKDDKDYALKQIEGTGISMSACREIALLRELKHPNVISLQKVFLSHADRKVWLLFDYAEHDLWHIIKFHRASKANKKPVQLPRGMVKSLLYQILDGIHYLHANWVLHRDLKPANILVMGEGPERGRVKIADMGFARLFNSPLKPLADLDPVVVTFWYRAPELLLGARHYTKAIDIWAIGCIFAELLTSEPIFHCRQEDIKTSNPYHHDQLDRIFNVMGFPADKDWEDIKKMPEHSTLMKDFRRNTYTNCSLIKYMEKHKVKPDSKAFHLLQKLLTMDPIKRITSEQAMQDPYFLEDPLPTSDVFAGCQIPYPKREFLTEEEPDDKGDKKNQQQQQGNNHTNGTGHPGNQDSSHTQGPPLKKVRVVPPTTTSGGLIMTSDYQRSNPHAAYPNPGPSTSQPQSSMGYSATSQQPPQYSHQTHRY
Assay: CDK8/Cyclin C binding assay (LanthaScreen Eu-Kinase Binding Assay)
Settings: binding assay
pIC50: −log10 of the molar value.
readout.label: pIC50

molecule	target.under.test	reading
CCn1c(C(N)=O)cc2c1-c1ccncc1O[C@@H]2C1CCCCC1 (single isomer, unassigned) [Example 90]	CDK8/Cyclin C (Homo sapiens (Human), UniProt P49336)	8.87
CC1(C)Oc2cnc(Cl)cc2-c2[nH]c(C(N)=O)cc21 [Example 38]	CDK8/Cyclin C (Homo sapiens (Human), UniProt P49336)	6.34
CCN(CC)C(=O)c1cc2c([nH]1)-c1ccncc1OC2(C)C [Example 9]	CDK8/Cyclin C (Homo sapiens (Human), UniProt P49336)	6.01
NC(=O)c1cc2c([nH]1)-c1ccncc1OC21CCCCC1 [Example 13]	CDK8/Cyclin C (Homo sapiens (Human), UniProt P49336)	8.38
CCn1c(C(N)=O)c(-c2ccccc2OC)c2c1-c1ccncc1OC2(C)C [Example 68]	CDK8/Cyclin C (Homo sapiens (Human), UniProt P49336)	8.49
CC1(C)Oc2cnccc2-c2[nH]c(C(N)=O)c(Cl)c21 [Example 28]	CDK8/Cyclin C (Homo sapiens (Human), UniProt P49336)	8.03
NC(=O)c1cc2c([nH]1)-c1ccncc1OC2C1CCCCC1 (stereo not drawn) [Example 57]	CDK8/Cyclin C (Homo sapiens (Human), UniProt P49336)	8.85
NC(=O)c1cc2c([nH]1)-c1ccncc1O[C@@H]2C1CCOCC1 (single isomer, unassigned) [Example 71]	CDK8/Cyclin C (Homo sapiens (Human), UniProt P49336)	6.55
CC1(C)Oc2cnccc2-c2[nH]c(C(N)=O)c(C3CC3)c21 [Example 86]	CDK8/Cyclin C (Homo sapiens (Human), UniProt P49336)	8.36

---

Items are presented alongside their recorded IC50.
Target: CDK8/Cyclin C (Homo sapiens (Human), UniProt P49336)
Test: CDK8/Cyclin C binding assay (LanthaScreen Eu-Kinase Binding Assay)
Conditions: binding assay

mol.smiles	IC50 [nM]
CC1(C)Oc2cnccc2-c2[nH]c(C(=O)O)c(Br)c21	52.5
CNC(=O)c1cc2c([nH]1)-c1ccncc1OC2(C)C	92.2
COC(=O)c1[nH]c2c(c1-c1ccc(S(N)(=O)=O)cc1)C(C)(C)Oc1cnccc1-2	2850
CC1(C)Oc2cnccc2-c2[nH]c(C(N)=O)c(-c3ccc(F)cc3)c21	581
COCCn1c(C(N)=O)cc2c1-c1ccncc1OC21CCOCC1	14.2

---

Target: UniProtKB Q8TF76
Sequence (Q8TF76 484-798): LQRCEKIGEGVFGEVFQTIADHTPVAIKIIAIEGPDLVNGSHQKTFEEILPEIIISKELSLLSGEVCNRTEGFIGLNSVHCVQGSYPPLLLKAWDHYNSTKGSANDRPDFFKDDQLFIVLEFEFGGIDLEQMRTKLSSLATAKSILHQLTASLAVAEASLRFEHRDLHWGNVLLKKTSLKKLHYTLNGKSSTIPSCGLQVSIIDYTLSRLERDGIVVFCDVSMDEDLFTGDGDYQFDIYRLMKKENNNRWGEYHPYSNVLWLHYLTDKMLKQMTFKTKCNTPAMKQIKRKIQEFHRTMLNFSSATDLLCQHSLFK
Consider the reported IC50 of an entry and match it to a band in class A (below 0.5 µM), class B (0.5 µM to below 6 µM), class C (6 µM or more)

compound	group.label
CC1(C)Oc2cnccc2-c2[nH]c(C(N)=O)c(-c3ccccc3C(F)(F)F)c21 [Example 74]	class B
CCn1c(C(N)=O)cc2c1-c1ccncc1OC21CCOCC1 [Example 82]	class A
NC(=O)c1cc2c([nH]1)-c1ccncc1OC21CCN(CCc2ccccc2)CC1 [Example 46]	class A
CC(C)n1c(C(N)=O)cc2c1-c1ccncc1OC2(C)C [Example 25]	class C
COCCNC(=O)c1cc2c([nH]1)-c1ccncc1OC2(C)C [Example 7]	class B
Cn1c(C(N)=O)cc2c1-c1c(Cl)cncc1OC2(C)C [Example 41]	class B
CC1(C)Oc2cnccc2-c2[nH]c(C(=O)Nc3ccccc3)cc21 [Example 4]	class C
NC(=O)c1cc2c([nH]1)-c1ccncc1OC21CCN(CCCC(F)(F)F)CC1 [Example 48]	class A
NC(=O)c1cc2c([nH]1)-c1ccncc1O[C@@H]2C1CCOCC1 (single isomer, unassigned) [Example 71]	class B

---

System: SW620
Assay: In vitro cell proliferation assay (CellTiter-Glo), SW620
Format: cell-based, human
Conditions: Homo sapiens, SW-620; growth inhibition, semiquantitative; read-out: GI50 SW620
readout.label: GI50

compound	reading
CC1(C)Oc2cnccc2-c2c1cc(C(N)=O)n2CCF [Example 52]	1 to 10 µM
NC(=O)c1cc2c(n1CCF)-c1ccncc1OC21CCCCC1 [Example 84]	1 to 10 µM
Cn1c(C(N)=O)cc2c1-c1ccncc1OC21CCOCC1 [Example 81]	1 to 10 µM
CCn1c(C(N)=O)cc2c1-c1ccncc1OC21CCN(CC(F)(F)F)CC1 [Example 79]	1 to 10 µM
CCn1c(C(N)=O)c(-c2cccc(OC)c2)c2c1-c1ccncc1OC2(C)C [Example 88]	10 to 100 µM
COCCn1c(C(N)=O)cc2c1-c1ccncc1OC21CCOCC1 [Example 87]	10 to 100 µM
NC(=O)c1cc2c([nH]1)-c1ccncc1OC21CCC1 [Example 15]	10 to 100 µM
NC(=O)c1cc2c([nH]1)-c1ccncc1O[C@H]2C1CCOCC1 (single isomer, unassigned) [Example 72]	10 to 100 µM
NC(=O)c1cc2c([nH]1)-c1ccncc1O[C@H]2C1CCCCC1 (single isomer, unassigned) [Example 70]	1 to 10 µM
CC1(C)Oc2cnccc2-c2[nH]c(C(N)=O)c(C3CC3)c21 [Example 86]	1 to 10 µM
Cn1c(C(N)=O)cc2c1-c1ccncc1OC21CCCCC1 [Example 83]	1 to 10 µM
NC(=O)c1cc2c([nH]1)-c1ccncc1OC2C1CCCCC1 (centres unmarked) [Example 57]	< 1 µM
CCn1c(C(N)=O)cc2c1-c1ccncc1OC21CCCCC1 [Example 80]	1 to 10 µM
CCn1c(C(N)=O)c(-c2ccccc2OC)c2c1-c1ccncc1OC2(C)C [Example 68]	10 to 100 µM
CCn1c(C(N)=O)cc2c1-c1ccncc1OC21CCOCC1 [Example 82]	1 to 10 µM
NC(=O)c1cc2c(n1CCF)-c1ccncc1OC21CCC1 [Example 76]	1 to 10 µM
NC(=O)c1cc2c([nH]1)-c1ccncc1OC21CCN(CC(F)(F)F)CC1 [Example 18]	10 to 100 µM
CCn1c(C(N)=O)cc2c1-c1ccncc1OC21CCNCC1 [Example 91]	1 to 10 µM
NC(=O)c1cc2c([nH]1)-c1ccncc1OC21CCN(CCc2ccccc2)CC1 [Example 46]	1 to 10 µM
NC(=O)c1cc2c([nH]1)-c1ccncc1O[C@@H]2C1CCCCC1 (single isomer, unassigned) [Example 69]	< 1 µM

---

Target: CDK8/Cyclin C (Homo sapiens (Human))
Assay: CDK8/Cyclin C binding assay (LanthaScreen Eu-Kinase Binding Assay)
Conditions: binding assay
pIC50: −log10 of the molar value.

compound	pIC50
COC(=O)c1cc2c([nH]1)-c1ccncc1OC2(C)C [VIII]	6.17
CC1(C)Oc2cnccc2-c2[nH]c(C(N)=O)c(-c3ccccc3C(F)(F)F)c21 [Example 74]	6.68
CCn1c(C(N)=O)cc2c1-c1ccncc1OC21CCOCC1 [Example 82]	8.66
O=C(O)c1cc2c([nH]1)-c1ccncc1OC21CCN(C2CC2)CC1 [Example 17]	5.82
CCn1c(C(N)=O)cc2c1-c1ccncc1OC21CCNCC1 [Example 91]	6.52
CC(C)n1c(C(=O)O)cc2c1-c1ccncc1OC2(C)C [Example 26]	5.23
CC(=O)N1CCC2(CC1)Oc1cnccc1-c1[nH]c(C(N)=O)cc12 [Example 77]	8.13
CC1(C)Oc2cnccc2-c2[nH]c(C(N)=O)c(-c3ccccc3)c21 [Example 31]	7.53
CC1Oc2cnccc2-c2[nH]c(C(N)=O)cc21 (centres unmarked) [Example 58]	7.84
CC1(C)Oc2cncc(-c3ccccc3)c2-c2[nH]c(C(N)=O)cc21 [Example 39]	6.69
CCn1c(C(N)=O)cc2c1-c1ccncc1OC2(C)C [Example 43]	8.85
NC(=O)c1cc2c(n1CCF)-c1ccncc1OC21CCCCC1 [Example 84]	8.85
CC1(C2(C)Oc3cnccc3-c3[nH]c(C(N)=O)cc32)COC1 (centres unmarked) [Example 49]	6.50
NC(=O)c1cc2c([nH]1)-c1ccncc1O[C@H]2C1CCOCC1 (single isomer, unassigned) [Example 72]	8.35
COCCn1c(C(N)=O)cc2c1-c1ccncc1OC2(C)C [Example 45]	8.33
COC(=O)c1[nH]c2c(c1Br)C(C)(C)Oc1cnccc1-2 [LXVIII]	6.11
CCn1c(C(N)=O)c(-c2cccc(OC)c2)c2c1-c1ccncc1OC2(C)C [Example 88]	7.86
Cn1c(C(N)=O)cc2c1-c1c(Cl)cncc1OC2(C)C [Example 41]	7.26
COCCn1c(C(=O)O)cc2c1-c1ccncc1OC2(C)C [Example 27]	5.00
CCn1c(C(N)=O)c(C2CC2)c2c1-c1ccncc1OC2(C)C [Example 94]	8.58

---

Each record here notes measured pIC50.
Target: CDK19/Cyclin C (Homo sapiens (Human))
Sequence (Q9BWU1 whole entry): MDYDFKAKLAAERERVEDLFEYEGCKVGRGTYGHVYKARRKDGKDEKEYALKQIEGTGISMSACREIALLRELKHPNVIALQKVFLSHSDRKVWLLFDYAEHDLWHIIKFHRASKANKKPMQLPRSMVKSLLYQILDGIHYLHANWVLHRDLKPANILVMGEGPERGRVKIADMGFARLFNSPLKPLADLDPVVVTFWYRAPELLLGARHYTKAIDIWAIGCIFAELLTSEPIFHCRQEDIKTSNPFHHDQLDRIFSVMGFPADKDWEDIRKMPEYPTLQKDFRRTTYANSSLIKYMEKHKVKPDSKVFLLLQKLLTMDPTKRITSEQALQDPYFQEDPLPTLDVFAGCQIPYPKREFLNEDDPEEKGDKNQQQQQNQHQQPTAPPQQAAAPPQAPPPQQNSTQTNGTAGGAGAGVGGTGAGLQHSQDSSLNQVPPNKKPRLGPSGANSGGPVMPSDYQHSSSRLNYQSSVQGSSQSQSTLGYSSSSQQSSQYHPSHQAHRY
Sequence (P24863 whole entry partner): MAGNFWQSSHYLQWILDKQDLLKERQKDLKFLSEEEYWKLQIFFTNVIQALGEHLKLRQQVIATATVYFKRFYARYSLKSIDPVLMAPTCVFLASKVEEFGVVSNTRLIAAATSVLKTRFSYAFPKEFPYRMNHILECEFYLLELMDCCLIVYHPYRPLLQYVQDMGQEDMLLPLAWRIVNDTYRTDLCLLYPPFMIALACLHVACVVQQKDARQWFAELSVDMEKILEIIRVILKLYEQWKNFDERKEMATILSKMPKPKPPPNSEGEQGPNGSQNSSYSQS
Assay: CDK19/Cyclin C binding assay (LanthaScreen Eu-Kinase Binding Assay)
Conditions: read-out: CDK19-CYCC IC50
pIC50: −log10 of the molar value.

mol.smiles	pIC50
NC(=O)c1cc2c([nH]1)-c1ccncc1OC21CCCCC1	8.09
Cn1c(C(=O)O)cc2c1-c1ccncc1OC2(C)C	6.63
NC(=O)c1cc2c([nH]1)-c1ccncc1OC21CCN(CC(F)(F)F)CC1	7.39
CCn1c(C(N)=O)c(-c2ccccc2C(F)(F)F)c2c1-c1ccncc1OC2(C)C	7.78
CC1(C)Oc2cnccc2-c2c1cc(C(N)=O)n2CCF	8.85
